ASSAY_METRIC: intrinsic clearance, human liver microsomes (mL/min/kg)

Cc1cc2cc(C(=O)N(Cc3ccc4c(c3)OCO4)C3CC3)ccc2o1    127

I. CC(C)(C)OC(=O)NCCCC(=O)N[C@H]1C[C@@H](n2cnc3c(NCc4ccccc4)ncnc32)[C@@H](O)[C@H]1O
II. O=C(CSC1CCCC1)NCCn1nc2c(cc1=O)CCCC2
III. Cc1ccc2c(c1)cc(C(=O)N1CCOC(C(=O)N3CCc4ccccc4C3)C1)n2C (centres undefined)
Please list these compounds in decreasing order of intrinsic clearance, human liver microsomes. Hello, could you send the labels back in the order asked? Thank you. III, I, II
(III: 196 mL/min/kg, I: 110 mL/min/kg, II: 71 mL/min/kg)
